test system: off-target integration sites; assay: Off-target oligo insertion based assay in primary human hepatocytes (Table 30); assay type: cell-based; details: TTR sgRNAs in PHH, 100 ng Cas9 mRNA, 25 nM sgRNA, 12.5 nM donor oligo
Strand notation (5' to 3'): a small letter for the sugar, then the base; units joined by * are phosphorothioate-linked, units joined directly phosphodiester-linked; [ ] holds rarer units or linkages, { } end groups; capitals alone tell only the bases. m = 2'-O-methyl; r = 2'-OH (RNA)
Response key: 1 means # Sites in PHH >= 2; -1 means # Sites in PHH < 2.

Asked: Determine whether this molecule has # Sites in PHH no lower than 2: G000498: TTR sgRNA modified sequence, Human, SEQ ID No. 105; guide sequence of CR003359 (nucleic acid) guide: mA*mG*mU*rGrArGrUrCrUrGrGrArGrArGrCrUrGrCrArGrUrUrUrUrArGrAmGmCmUmAmGmAmAmAmUmAmGmCrArArGrUrUrArArArArUrArArGrGrCrUrArGrUrCrCrGrUrUrArUrCrAmAmCmUmUmGmAmAmAmAmAmGmUmGmGmCmAmCmCmGmAmGmUmCmGmGmUmGmCmU*mU*mU*mU
Given back: 1

Asked: Determine whether this molecule has # Sites in PHH no lower than 2: G000568: TTR sgRNA modified sequence, Human, SEQ ID No. 110; guide sequence of CR003391 (nucleic acid) guide: mG*mG*mC*rUrGrUrCrGrUrCrArCrCrArArUrCrCrCrArGrUrUrUrUrArGrAmGmCmUmAmGmAmAmAmUmAmGmCrArArGrUrUrArArArArUrArArGrGrCrUrArGrUrCrCrGrUrUrArUrCrAmAmCmUmUmGmAmAmAmAmAmGmUmGmGmCmAmCmCmGmAmGmUmCmGmGmUmGmCmU*mU*mU*mU
Given back: 1

Asked: Determine whether this molecule has # Sites in PHH no lower than 2: G000496: TTR sgRNA modified sequence, Human, SEQ ID No. 103; guide sequence of CR005304 (nucleic acid) guide: mG*mG*mC*rCrGrUrGrCrArUrGrUrGrUrUrCrArGrArArGrUrUrUrUrArGrAmGmCmUmAmGmAmAmAmUmAmGmCrArArGrUrUrArArArArUrArArGrGrCrUrArGrUrCrCrGrUrUrArUrCrAmAmCmUmUmGmAmAmAmAmAmGmUmGmGmCmAmCmCmGmAmGmUmCmGmGmUmGmCmU*mU*mU*mU
Given back: -1

Asked: Determine whether this molecule has # Sites in PHH no lower than 2: G000485: TTR sgRNA modified sequence, Human, SEQ ID No. 92; guide sequence of CR003336 (nucleic acid) guide: mC*mC*mU*rCrCrUrCrUrGrCrCrUrUrGrCrUrGrGrArCrGrUrUrUrUrArGrAmGmCmUmAmGmAmAmAmUmAmGmCrArArGrUrUrArArArArUrArArGrGrCrUrArGrUrCrCrGrUrUrArUrCrAmAmCmUmUmGmAmAmAmAmAmGmUmGmGmCmAmCmCmGmAmGmUmCmGmGmUmGmCmU*mU*mU*mU
Given back: 1

Asked: Determine whether this molecule has # Sites in PHH no lower than 2: G000483: TTR sgRNA modified sequence, Human, SEQ ID No. 90; guide sequence of CR005298 (nucleic acid) guide: mU*mC*mC*rArCrUrCrArUrUrCrUrUrGrGrCrArGrGrArGrUrUrUrUrArGrAmGmCmUmAmGmAmAmAmUmAmGmCrArArGrUrUrArArArArUrArArGrGrCrUrArGrUrCrCrGrUrUrArUrCrAmAmCmUmUmGmAmAmAmAmAmGmUmGmGmCmAmCmCmGmAmGmUmCmGmGmUmGmCmU*mU*mU*mU
Given back: -1

Asked: Determine whether this molecule has # Sites in PHH no lower than 2: G000499: TTR sgRNA modified sequence, Human, SEQ ID No. 106; guide sequence of CR005303 (nucleic acid) guide: mU*mG*mA*rArUrCrCrArArGrUrGrUrCrCrUrCrUrGrArGrUrUrUrUrArGrAmGmCmUmAmGmAmAmAmUmAmGmCrArArGrUrUrArArArArUrArArGrGrCrUrArGrUrCrCrGrUrUrArUrCrAmAmCmUmUmGmAmAmAmAmAmGmUmGmGmCmAmCmCmGmAmGmUmCmGmGmUmGmCmU*mU*mU*mU
Given back: -1

Just for reference, patent US11795460B2 is where these values come from.
